System: EPHA2;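 further: KINOMEscan kinase panel screen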
Condition Description: concentration: 1 μM,replicates: in singlicate; n = 1
Assay Metric: %Inh (%)

[[record]]
compound = "CC(C)N1C(=O)Cc2cc(Nc3ncc(C(F)(F)F)c(NCc4cccc(S(C)(=O)=O)c4)n3)ccc21"
readout_number = 0

[[record]]
compound = "CNC(=O)c1ccccc1Sc1ccc2c(/C=C/c3ccccn3)n[nH]c2c1"
readout_number = 9

[[record]]
compound = "COc1ccc(C[C@@H](CN)NC(=O)c2cc(Br)c(-c3ccnc4[nH]ccc34)s2)cc1.Cl.Cl"
readout_number = 17

[[record]]
compound = "CN(C)CC(O)COc1ccc(Nc2nccc(-c3cnn4nc(N5CCOCC5)ccc34)n2)cc1 (stereo not drawn)"
readout_number = 0

[[record]]
compound = "NC(=O)c1cc(-c2ccccc2)cc2c(C3CCNCC3)c[nH]c12"
readout_number = 10

[[record]]
compound = "O=C(NCCCN1CCOC1=O)c1cnc(NCc2cc(Cl)ccc2Cl)nc1NC1CCCC1"
readout_number = 25

[[record]]
compound = "C=CC(=O)Nc1cc2c(Nc3ccc(F)c(Cl)c3)ncnc2cc1OCCCN1CCOCC1"
readout_number = 0

[[record]]
compound = "CN(C)CCOc1ccc(-c2cc(-c3c[nH]nc3-c3ccccn3)ccn2)cc1"
readout_number = 10

[[record]]
compound = "Cc1n[nH]c2ccc(-c3cc(OC[C@@H](N)Cc4ccccc4)cnc3-c3ccoc3)cc12.O=C(O)C(F)(F)F.O=C(O)C(F)(F)F"
readout_number = 0

[[record]]
compound = "Nc1nc(Nc2ccccc2)cc(-c2ccc3c(N)n[nH]c3c2)n1"
readout_number = 32

[[record]]
compound = "Cl.Cl.Nc1nc(-c2ccc3c(N)n[nH]c3c2)cc(N2CCCC(NC(=O)c3ccccc3)C2)n1 (stereo not drawn)"
readout_number = 0

[[record]]
compound = "Cc1cc(C(=O)Nc2ccc(Oc3ccc4nc(NC(=O)C5CC5)cn4n3)cc2)nn1-c1ccccc1"
readout_number = 29

[[record]]
compound = "O=C(NCCNc1ccnc(NCc2ccc(F)cc2)n1)c1cc2ccccc2s1"
readout_number = 17

[[record]]
compound = "Cl.Cl.NC[C@H](Cc1ccc(C(F)(F)F)cc1)NC(=O)c1cc(Br)c(-c2ccnc3[nH]ccc23)s1"
readout_number = 14

[[record]]
compound = "C[C@H]1Oc2cc(cnc2N)-c2c(nn(C)c2C#N)CN(C)C(=O)c2ccc(F)cc21"
readout_number = 48

[[record]]
compound = "Cc1occc1-c1nc(N)c(OC[C@@H](N)Cc2c[nH]c3ccccc23)cc1-c1cc2c(C)n[nH]c2cn1"
readout_number = 13

[[record]]
compound = "CCN(CC)CCCCNc1ncc2cc(-c3c(Cl)cccc3Cl)c(NC(=O)NC(C)(C)C)nc2n1"
readout_number = 99.6

[[record]]
compound = "C[C@@H]1CCN(C(=O)CC#N)C[C@@H]1N(C)c1ncnc2[nH]ccc12"
readout_number = 0

